B1: OR4K15 (parent)
chain: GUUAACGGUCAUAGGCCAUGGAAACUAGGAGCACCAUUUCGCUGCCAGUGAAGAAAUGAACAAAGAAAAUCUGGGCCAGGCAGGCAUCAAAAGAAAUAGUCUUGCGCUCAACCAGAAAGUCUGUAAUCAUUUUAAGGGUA

- Variants of: B1
- protocol_details: self-cleavage, relative activity (ratio to wild type); higher = more cleavage; in vitro, sequencing; the parent is a self-cleaving ribozyme
measured_attribute: self-cleavage

INSERT INTO results (mutant_name, measured_value) VALUES
  ('U26A U120G', 1.26),
  ('G7A A92G', 1.8),
  ('U49C A67G', 1.2),
  ('A18U A96G', 1.62),
  ('U43G A66G', 1.69),
  ('A23G A92G', 1.17),
  ('G75A U122A', 0.17),
  ('G65U G83U', 0.44),
  ('A5G G15U', 0.82),
  ('A51G A68U', 1.9),
  ('G7A A52G', 1.25),
  ('A90G G123A', 0.48),
  ('U38C G119U', 1.69),
  ('A33G U39A', 1.23),
  ('A67G C77U', 1.03),
  ('G75A U120C', 0.02),
  ('A30G U130C', 0.6),
  ('U43C A118C', 1.4),
  ('A51G A114G', 1.1),
  ('A62U A67G', 1.19),
  ('A51G U130A', 1.63),
  ('A62G U102C', 1.19),
  ('A94G U108G', 0.07),
  ('G65A U132C', 0.58),
  ('G14U A96U', 1.13),
  ('U37G A89G', 1.75),
  ('C6G', 1.83),
  ('U3C A62G', 0.96),
  ('A30G A69G', 1.27),
  ('A55C U57A', 1.84),
  ('A18G U38C', 0.46),
  ('U37C U124A', 0.21),
  ('A140C', 1.4),
  ('A27G A86U', 1.34),
  ('A36C A78C', 0.32),
  ('A64U C113U', 0.05),
  ('G41U A60G', 1.9),
  ('A54G A62U', 1.14),
  ('A90U A94G', 1.48),
  ('U72A A135G', 0.21),
  ('U39A A91G', 1.56),
  ('U43C A56G', 1.18),
  ('A59G U103A', 0.62),
  ('A4G G41A', 1.43),
  ('U3C A110G', 0.19),
  ('A60G C105G', 0.01);
